B1: library; a variant is named by its letters at N, in order (parent)
chain: GCUGUCACCGGAAUACCAGCAUCGUCUUGAUGCCCUUGGAAGUCCGGUCUGAUGAGUCCNNNNNGGACGAAACAGC

Variants of: B1
Assay: normalized RNA/DNA level without ligand (relative to sTRSVctl = 100) (log10 (% of sTRSVctl)); higher = less ribozyme self-cleavage, higher mRNA level
Conditions: HEK293T, reporter: mCherry (pCS4076), ligand present: no
Hi there, I'd appreciate the recorded normalized RNA/DNA level without ligand (log10) for every entry that follows.
Write the value as a bare number.

Q. Given the variant `CCGCU` , what is its reported normalized RNA/DNA level without ligand (log10)?
A. 1.81

Q. Then what about the variant `UGAGA` ?
A. 1.5

Q. `CUAUU` , same question.
A. 1.85

Q. Consider next the variant `UCGAC` in the same way.
A. 1.78

Q. Repeat with `UCCAC`
A. 1.95

Q. Repeat with `CUGAC`
A. 1.99

Q. Then `UCAUU` ?
A. 1.82

Q. Would you kindly repeat that for `CAGUU` ?
A. 1.63

Q. Now try `UAACC` .
A. 1.92

Q. Request: `UCCGU`
A. 2.03

Q. Another variant: `UAGUA`
A. 1.45

Q. Same again, this time with `UCUAU`
A. 1.87
